For each of the compounds below, state its NMBS (mean bacterial survival).
- System: Escherichia coli (10536 strain)
- Test Details: Antimicrobial efficacy, 15 seconds contact suspension assay (Examples 1 and 3)
- Type: cell-based
- Condition Context: contact time 15 seconds; phenol and terpineol concentration (% w/v) as given per example; 0 = complete kill; triplicate

Known NMBS (mean bacterial survival) results, listed for orientation:
>>> print(df.to_string())
                                   compound               reported_property     obs_value
0  CC1=CCC(O)(C(C)C)CC1 (stereo not drawn) [1:5, terpineol]  NMBS (mean bacterial survival)  0 log CFU/ml
1  Cc1cc(O)ccc1C(C)C [1:12, 4-isopropyl-3-methylphenol]  NMBS (mean bacterial survival)  0 log CFU/ml
2         Cc1ccc(C(C)C)c(O)c1 [1:1, thymol]  NMBS (mean bacterial survival)  0 log CFU/ml

Below are 3 compounds. Give each one its NMBS (mean bacterial survival).
1. CC1=CCC(O)(C(C)C)CC1 (stereo not drawn) [1:6, terpineol]
2. Cc1ccc(C(C)C)c(O)c1 [1:2, thymol]
3. Cc1ccc(C(C)C)c(O)c1 [1:3, thymol]

Out:
1: 7 log CFU/ml; 2: 0 log CFU/ml; 3: >7 log CFU/ml

====

- Tested on: Escherichia coli (10536 strain)
- Test Details: Antimicrobial efficacy, 15 seconds contact suspension assay (Examples 1 and 3)
- Type: cell-based
- Condition Context: contact time 15 seconds; phenol and terpineol concentration (% w/v) as given per example; 0 = complete kill; triplicate
Reported Property: NMBS (mean bacterial survival) (log CFU/ml)
One number for each entry, in log CFU/ml.

>>> print(df.to_string())
                                   molecule              experimental_target               reported_property  obs_value
0  CC1=CCC(O)(C(C)C)CC1 (centres unmarked) [1:4, terpineol]  Escherichia coli (10536 strain)  NMBS (mean bacterial survival)          0
1  Cc1cc(O)cc(C(C)C)c1 [1:8, 3-isopropyl-5-methylphenol]  Escherichia coli (10536 strain)  NMBS (mean bacterial survival)          0
2  Cc1cc(O)ccc1C(C)C [1:13, 4-isopropyl-3-methylphenol]  Escherichia coli (10536 strain)  NMBS (mean bacterial survival)        7.6
3  CC1=CCC(O)(C(C)C)CC1 (centres unmarked) [1:7, terpineol]  Escherichia coli (10536 strain)  NMBS (mean bacterial survival)          7

Let us move to another entry and its NMBS (mean bacterial survival).
In: Fill in reported NMBS (mean bacterial survival) for this entry: Cc1cc(O)cc(C(C)C)c1 [1:9, 3-isopropyl-5-methylphenol]
Out: 7.6

Reference source for all entries: patent US20140322076A1
